Target: T1, orthogonal hCD122 receptor (hoRb), hCD122 with H133D and Y134F (human, UniProt P14784 27-550)
T1 sequence: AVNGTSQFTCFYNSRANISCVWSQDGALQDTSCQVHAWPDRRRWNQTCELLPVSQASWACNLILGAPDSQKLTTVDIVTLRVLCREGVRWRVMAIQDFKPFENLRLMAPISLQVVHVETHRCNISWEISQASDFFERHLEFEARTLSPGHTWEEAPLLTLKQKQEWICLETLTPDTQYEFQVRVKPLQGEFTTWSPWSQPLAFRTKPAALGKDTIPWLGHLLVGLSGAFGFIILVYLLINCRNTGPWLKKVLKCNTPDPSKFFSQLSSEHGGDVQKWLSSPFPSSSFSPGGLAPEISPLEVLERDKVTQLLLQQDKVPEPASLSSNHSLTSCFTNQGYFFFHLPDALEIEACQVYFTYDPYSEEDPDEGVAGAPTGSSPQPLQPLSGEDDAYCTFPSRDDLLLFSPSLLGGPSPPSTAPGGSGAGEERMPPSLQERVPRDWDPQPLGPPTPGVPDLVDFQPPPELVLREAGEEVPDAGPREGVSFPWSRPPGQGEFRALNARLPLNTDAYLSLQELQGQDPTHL
Experiment: cell-based or functional assay
Entries are grouped by NKL Ortho Proliferation Signal 1:2 into these classes: low: < 10000; mid: ≥ 10000 and < 50000; high: ≥ 50000

Given H55Y, SQVLKA (ligand) APTSSSTKKTQLQLSQLLVLLKAILNGINNYKNPKLTRMLTFKFYMPKKATELKYLQCLEEELKPLEEVLNLAQSKNFHLRPRDLISNINVIVLELKGSETTFMCEYADETATIVEFLNRWITFCQSIISTLT , name the class its NKL Ortho Proliferation Signal 1:2 places it in.
mid

Entry to check: M39V, SQVLKA (ligand) APTSSSTKKTQLQLSQLLVLLKAILNGINNYKNPKLTRVLTFKFYMPKKATELKHLQCLEEELKPLEEVLNLAQSKNFHLRPRDLISNINVIVLELKGSETTFMCEYADETATIVEFLNRWITFCQSIISTLT
mid

Entry to check: ΔT51, SQVLKA (ligand) APTSSSTKKTQLQLSQLLVLLKAILNGINNYKNPKLTRMLTFKFYMPKKAELKHLQCLEEELKPLEEVLNLAQSKNFHLRPRDLISNINVIVLELKGSETTFMCEYADETATIVEFLNRWITFCQSIISTLT
mid

Entry to check: D109C, SQVLKA (ligand) APTSSSTKKTQLQLSQLLVLLKAILNGINNYKNPKLTRMLTFKFYMPKKATELKHLQCLEEELKPLEEVLNLAQSKNFHLRPRDLISNINVIVLELKGSETTFMCEYACETATIVEFLNRWITFCQSIISTLT
mid

Entry to check: N88E, SQVLKA (ligand) APTSSSTKKTQLQLSQLLVLLKAILNGINNYKNPKLTRMLTFKFYMPKKATELKHLQCLEEELKPLEEVLNLAQSKNFHLRPRDLISEINVIVLELKGSETTFMCEYADETATIVEFLNRWITFCQSIISTLT
low

Entry to check: Q126R, SQVLKA (ligand) APTSSSTKKTQLQLSQLLVLLKAILNGINNYKNPKLTRMLTFKFYMPKKATELKHLQCLEEELKPLEEVLNLAQSKNFHLRPRDLISNINVIVLELKGSETTFMCEYADETATIVEFLNRWITFCRSIISTLT
mid

Entry to check: M104A, SQVLKA (ligand) APTSSSTKKTQLQLSQLLVLLKAILNGINNYKNPKLTRMLTFKFYMPKKATELKHLQCLEEELKPLEEVLNLAQSKNFHLRPRDLISNINVIVLELKGSETTFACEYADETATIVEFLNRWITFCQSIISTLT
mid

Entry to check: Q126G, SQVLKA (ligand) APTSSSTKKTQLQLSQLLVLLKAILNGINNYKNPKLTRMLTFKFYMPKKATELKHLQCLEEELKPLEEVLNLAQSKNFHLRPRDLISNINVIVLELKGSETTFMCEYADETATIVEFLNRWITFCGSIISTLT
low

Entry to check: T3Q, SQVLKA (ligand) APQSSSTKKTQLQLSQLLVLLKAILNGINNYKNPKLTRMLTFKFYMPKKATELKHLQCLEEELKPLEEVLNLAQSKNFHLRPRDLISNINVIVLELKGSETTFMCEYADETATIVEFLNRWITFCQSIISTLT
high

Entry to check: L18D, SQVLKA (ligand) APTSSSTKKTQLQLSQLDVLLKAILNGINNYKNPKLTRMLTFKFYMPKKATELKHLQCLEEELKPLEEVLNLAQSKNFHLRPRDLISNINVIVLELKGSETTFMCEYADETATIVEFLNRWITFCQSIISTLT
low

Entry to check: T3E, SQVLKA (ligand) APESSSTKKTQLQLSQLLVLLKAILNGINNYKNPKLTRMLTFKFYMPKKATELKHLQCLEEELKPLEEVLNLAQSKNFHLRPRDLISNINVIVLELKGSETTFMCEYADETATIVEFLNRWITFCQSIISTLT
high

Entry to check: L18M, SQVLKA (ligand) APTSSSTKKTQLQLSQLMVLLKAILNGINNYKNPKLTRMLTFKFYMPKKATELKHLQCLEEELKPLEEVLNLAQSKNFHLRPRDLISNINVIVLELKGSETTFMCEYADETATIVEFLNRWITFCQSIISTLT
mid

Entry to check: Q126T, SQVLKA (ligand) APTSSSTKKTQLQLSQLLVLLKAILNGINNYKNPKLTRMLTFKFYMPKKATELKHLQCLEEELKPLEEVLNLAQSKNFHLRPRDLISNINVIVLELKGSETTFMCEYADETATIVEFLNRWITFCTSIISTLT
low
